test-description: DRUGMATRIX: Calcium Channel Type L, Benzothiazepine radioligand binding (ligand: [3H] Diltiazem)
Format: cell membranes, Rattus norvegicus, Wistar, Brain, Membrane
run-conditions: Not Active = under 50% inhibition at 10 µM

compound	IC50
CN(CCOc1ccc(CC2SC(=O)NC2=O)cc1)c1ccccn1 (stereo not drawn) [ROSIGLITAZONE]	Not Active
CO[C@H]1[C@@H](O)[C@H](N)[C@@H](O[C@H]2O[C@H]([C@H](C)N)CC[C@H]2N)[C@H](O)[C@@H]1N(C)C(=O)CN [ASTROMICIN]	Not Active
NC[C@H]1O[C@H](O[C@H]2[C@H](O)[C@@H](O[C@H]3O[C@H](CO)[C@@H](O)[C@H](N)[C@H]3O)[C@H](N)C[C@@H]2N)[C@H](N)C[C@@H]1O [TOBRAMYCIN]	Not Active

---

test-description: DRUGMATRIX: Sigma2 radioligand binding (ligand: [3H] Ifenprodil)
Assay type: cell membranes, Rattus norvegicus, Wistar, Brain, Membrane
run-conditions: Not Active = under 50% inhibition at 10 µM
value-type: Ki

Some entries whose results are on file:
substance	Ki
THIMEROSAL	Not Active
COBALT(II) ACETYLACETONATE	Not Active
INSULIN HUMAN	Not Active
POLYVINYL ALCOHOL	Not Active

Please look at the following substance next.
Query :: Return Ki for the following substance: STANNOUS FLUORIDE
Result :: Not Active

---

experimental-system: UniProtKB P04626
Sequence (P04626 whole entry): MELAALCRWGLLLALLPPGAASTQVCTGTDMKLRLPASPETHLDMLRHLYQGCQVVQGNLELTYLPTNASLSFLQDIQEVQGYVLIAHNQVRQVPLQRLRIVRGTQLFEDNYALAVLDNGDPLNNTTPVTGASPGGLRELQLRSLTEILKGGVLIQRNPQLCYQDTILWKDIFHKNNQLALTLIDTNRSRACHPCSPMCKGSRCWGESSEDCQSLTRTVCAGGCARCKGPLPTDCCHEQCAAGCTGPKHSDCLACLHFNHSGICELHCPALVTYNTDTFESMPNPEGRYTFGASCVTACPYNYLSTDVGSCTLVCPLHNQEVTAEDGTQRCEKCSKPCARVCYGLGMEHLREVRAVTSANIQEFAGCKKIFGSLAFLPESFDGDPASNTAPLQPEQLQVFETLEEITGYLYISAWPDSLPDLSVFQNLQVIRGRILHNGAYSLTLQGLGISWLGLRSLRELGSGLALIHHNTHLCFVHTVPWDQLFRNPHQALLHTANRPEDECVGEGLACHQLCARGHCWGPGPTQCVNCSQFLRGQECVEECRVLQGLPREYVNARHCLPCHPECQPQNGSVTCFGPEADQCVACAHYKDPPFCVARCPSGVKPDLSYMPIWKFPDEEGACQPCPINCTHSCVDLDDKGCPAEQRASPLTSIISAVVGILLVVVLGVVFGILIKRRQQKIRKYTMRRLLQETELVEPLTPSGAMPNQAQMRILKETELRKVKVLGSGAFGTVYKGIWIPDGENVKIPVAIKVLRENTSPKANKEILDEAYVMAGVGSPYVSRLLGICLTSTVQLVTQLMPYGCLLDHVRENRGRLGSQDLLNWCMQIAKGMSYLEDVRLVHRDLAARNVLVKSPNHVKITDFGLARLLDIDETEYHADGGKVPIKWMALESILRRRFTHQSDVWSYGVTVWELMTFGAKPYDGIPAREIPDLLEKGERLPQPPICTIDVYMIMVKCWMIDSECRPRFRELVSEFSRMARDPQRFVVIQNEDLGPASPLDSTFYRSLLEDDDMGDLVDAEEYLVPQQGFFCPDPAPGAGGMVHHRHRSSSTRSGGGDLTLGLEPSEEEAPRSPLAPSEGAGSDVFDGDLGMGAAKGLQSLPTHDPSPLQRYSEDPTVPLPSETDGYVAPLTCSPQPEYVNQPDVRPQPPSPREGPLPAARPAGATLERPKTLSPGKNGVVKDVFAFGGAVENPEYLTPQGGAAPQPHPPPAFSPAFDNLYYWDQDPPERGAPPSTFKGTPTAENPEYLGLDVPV
test-description: biochemical
Assay type: cell-based, Insect cells
run-conditions: read-out: IC50
Measured IC50 of individual entries
Entry rule: numbers only, all in µM.

molecule	unit-info	IC50
OCCN1CCN(CCCN2c3ccccc3Sc3ccc(C(F)(F)F)cc32)CC1 [FLUPHENAZINE]	µM	19.6

Query :: Return IC50 for the following molecule: O=C(/C=C/c1ccc(O)c(O)c1)OCCc1ccccc1 [CAFFEIC ACID PHENETHYL ESTER]
Result :: 1.33

---

experimental-system: Cytochrome P450 1A2 (Homo sapiens, UniProt P05177); further: in other assays of this panel Not Active means under 50% inhibition at 10 µM
Sequence (P05177 whole entry): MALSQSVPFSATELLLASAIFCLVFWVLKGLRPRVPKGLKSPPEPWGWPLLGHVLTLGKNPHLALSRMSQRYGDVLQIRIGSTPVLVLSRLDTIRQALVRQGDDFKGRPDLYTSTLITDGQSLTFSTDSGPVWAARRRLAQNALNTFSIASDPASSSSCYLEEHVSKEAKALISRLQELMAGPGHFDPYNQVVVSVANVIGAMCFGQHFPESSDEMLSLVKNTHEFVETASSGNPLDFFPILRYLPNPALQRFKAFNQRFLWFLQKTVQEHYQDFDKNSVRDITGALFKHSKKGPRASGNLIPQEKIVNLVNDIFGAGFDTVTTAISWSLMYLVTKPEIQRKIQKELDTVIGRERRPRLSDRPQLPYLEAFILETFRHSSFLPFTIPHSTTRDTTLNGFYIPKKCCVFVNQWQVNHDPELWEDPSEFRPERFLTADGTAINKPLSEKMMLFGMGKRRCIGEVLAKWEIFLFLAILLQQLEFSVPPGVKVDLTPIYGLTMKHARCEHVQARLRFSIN
run-conditions: bti-tn-5b1-4
value-type: IC50

molecule	result
CCC(=O)O[C@H]1[C@H](O[C@@H]2[C@@H](C)[C@H](O[C@H]3C[C@@](C)(OC)[C@@H](O)[C@H](C)O3)[C@@H](C)C(=O)O[C@H](CC)[C@@](C)(O)[C@H](O)[C@@H](C)C(=O)[C@H](C)C[C@@]2(C)O)O[C@H](C)C[C@@H]1N(C)C [ERYTHROMYCIN PROPIONATE]	Not Active
O=c1cc(-c2ccccc2)oc2ccc3ccccc3c12 [BETA-NAPHTHOFLAVONE]	Not Active
C[C@H]([C@](O)(Cn1cncn1)c1ccc(F)cc1F)S(C)(=O)=O [GENACONAZOLE]	Not Active

---

experimental-system: Platelet-activating factor receptor (Homo sapiens, UniProt P25105); further: in other assays of this panel Not Active means under 50% inhibition at 10 µM
Sequence (P25105 whole entry): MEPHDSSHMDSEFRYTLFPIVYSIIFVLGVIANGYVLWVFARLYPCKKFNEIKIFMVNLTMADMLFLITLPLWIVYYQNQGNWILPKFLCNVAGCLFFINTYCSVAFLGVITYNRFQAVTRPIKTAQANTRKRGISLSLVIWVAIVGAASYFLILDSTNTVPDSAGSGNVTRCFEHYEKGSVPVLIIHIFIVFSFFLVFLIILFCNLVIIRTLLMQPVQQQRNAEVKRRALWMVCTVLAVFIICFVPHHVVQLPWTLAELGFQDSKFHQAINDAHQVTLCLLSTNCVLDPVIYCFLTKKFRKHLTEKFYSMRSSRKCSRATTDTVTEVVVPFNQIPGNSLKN
test-description: biochemical
Format: tissue-based
run-conditions: platelet
value-type: IC50

Some entries whose results are on file:
compound	experimental-system	value-type	result
C#C[C@]1(O)CC[C@H]2[C@@H]3CCC4=Cc5oncc5C[C@]4(C)[C@H]3CC[C@@]21C [DANAZOL]	Platelet-activating factor receptor (Homo sapiens, UniProt P25105)	IC50	Not Active
C[C@@H]1CC[C@H]2[C@@H](C)C(=O)O[C@@H]3O[C@@]4(C)CC[C@@H]1[C@]32OO4 [ARTEMISININ]	Platelet-activating factor receptor (Homo sapiens, UniProt P25105)	IC50	Not Active
CC[C@H]1OC(=O)[C@H](C)[C@@H](O[C@H]2C[C@@](C)(OC)[C@@H](O)[C@H](C)O2)[C@H](C)[C@@H](O[C@@H]2O[C@H](C)C[C@H](N(C)C)[C@H]2O)[C@](C)(O)C[C@@H](C)CN(C)[C@H](C)[C@@H](O)[C@]1(C)O [AZITHROMYCIN]	Platelet-activating factor receptor (Homo sapiens, UniProt P25105)	IC50	Not Active
CCS(=O)(=O)CCn1c([N+](=O)[O-])cnc1C [TINIDAZOLE]	Platelet-activating factor receptor (Homo sapiens, UniProt P25105)	IC50	Not Active
N[C@@H](Cc1ccc(F)cc1)C(=O)O	Platelet-activating factor receptor (Homo sapiens, UniProt P25105)	IC50	Not Active
Cc1cccc(Nc2ccccc2C(=O)O)c1C [MEFENAMIC ACID]	Platelet-activating factor receptor (Homo sapiens, UniProt P25105)	IC50	Not Active

Query :: Report IC50 under test system Platelet-activating factor receptor (Homo sapiens, UniProt P25105) for Nc1ccc(S(=O)(=O)Nc2nccs2)cc1 [SULFATHIAZOLE] . Further: in other assays of this panel Not Active means under 50% inhibition at 10 µM.
Result :: Not Active

Query :: Report IC50 under test system Platelet-activating factor receptor (Homo sapiens, UniProt P25105) for CCOC(=O)n1ccn(C)c1=S [CARBIMAZOLE] . Further: in other assays of this panel Not Active means under 50% inhibition at 10 µM.
Result :: Not Active

Query :: Report IC50 under test system Platelet-activating factor receptor (Homo sapiens, UniProt P25105) for `O=C(c1ccccc1Cl)N1CCC(Cc2ccccc2)CC1` . Further: in other assays of this panel Not Active means under 50% inhibition at 10 µM.
Result :: Not Active

Query :: Report IC50 under test system Platelet-activating factor receptor (Homo sapiens, UniProt P25105) for CC(=O)O[C@]1(C(C)=O)CC[C@H]2[C@@H]3C=C(C)C4=CC(=O)CC[C@]4(C)[C@H]3CC[C@@]21C [MEGESTROL ACETATE] . Further: in other assays of this panel Not Active means under 50% inhibition at 10 µM.
Result :: Not Active

Query :: Report IC50 under test system Platelet-activating factor receptor (Homo sapiens, UniProt P25105) for C[C@]12CC[C@H]3[C@@H](CCC4=CC(=O)CC[C@@]43C)[C@@H]1CC[C@@H]2O [TESTOSTERONE] . Further: in other assays of this panel Not Active means under 50% inhibition at 10 µM.
Result :: Not Active

Query :: Report IC50 under test system Platelet-activating factor receptor (Homo sapiens, UniProt P25105) for C=C1/C(=C\C=C2/CCC[C@]3(C)[C@@H]([C@H](C)CCCC(C)C)CC[C@@H]23)C[C@@H](O)C[C@@H]1O [ALFACALCIDOL] . Further: in other assays of this panel Not Active means under 50% inhibition at 10 µM.
Result :: Not Active

---

experimental-system: Sigma non-opioid intracellular receptor 1 (Homo sapiens, UniProt Q99720)
Sequence (Q99720 whole entry): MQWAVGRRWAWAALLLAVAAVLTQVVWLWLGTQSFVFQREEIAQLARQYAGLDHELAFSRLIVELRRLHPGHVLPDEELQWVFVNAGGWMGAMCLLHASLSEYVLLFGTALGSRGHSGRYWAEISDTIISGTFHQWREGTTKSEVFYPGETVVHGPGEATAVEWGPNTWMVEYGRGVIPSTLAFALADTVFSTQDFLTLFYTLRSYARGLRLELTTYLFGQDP
test-description: DRUGMATRIX: Sigma1 radioligand binding (ligand: [3H] Haloperidol)
Format: cell membranes, Jurkat, Membrane
run-conditions: jurkat; Not Active = under 50% inhibition at 10 µM
value-type: Ki

substance	result
COBALT(II) ACETYLACETONATE	Not Active
STANNOUS FLUORIDE	Not Active
POLYVINYL ALCOHOL	Not Active
THIMEROSAL	Not Active

Query :: Report Ki under test system Sigma non-opioid intracellular receptor 1 (Homo sapiens, UniProt Q99720) for INSULIN HUMAN .
Result :: Not Active

---

experimental-system: UniProt P07943
test-description: biochemical
Assay type: tissue-based, Lens of camera-type eye
value-type: IC50

Some entries whose results are on file:
molecule	experimental-system	result
O=c1n(CCCN2CCN(c3cccc(Cl)c3)CC2)nc2ccccn12	UniProt P07943	Not Active
CN1C(=O)CN=C(c2ccccc2)c2cc(Cl)ccc21	UniProt P07943	Not Active
Cc1cn[nH]c1 [FOMEPIZOLE]	UniProt P07943	Not Active
COc1ccccc1OCC(O)CO (centres undefined)	UniProt P07943	Not Active
C/C=C\c1ccc(O)c(OC)c1	UniProt P07943	Not Active

Query :: Return IC50 for the following molecule: CN(C(=O)CCCOc1ccc2[nH]c(=O)ccc2c1)C1CCCCC1 [CILOSTAMIDE]
Result :: Not Active

Query :: Return IC50 for the following molecule: `CNS(=O)(=O)Cc1ccc2[nH]cc(CCN(C)C)c2c1`
Result :: Not Active

Query :: Return IC50 for the following molecule: `O=C(O)C(Cl)(Cl)Cl`
Result :: Not Active

Query :: Return IC50 for the following molecule: `C[C@H](C(=O)O)c1cccc(C(=O)c2ccccc2)c1`
Result :: Not Active

Query :: Return IC50 for the following molecule: `C[C@]12C/C(=C/O)C(=O)C[C@@H]1CC[C@@H]1[C@@H]2CC[C@@]2(C)[C@H]1CC[C@]2(C)O`
Result :: Not Active

Query :: Return IC50 for the following molecule: Cc1cnc(C(=O)NCCc2ccc(S(=O)(=O)NC(=O)NC3CCCCC3)cc2)cn1 [GLIPIZIDE]
Result :: Not Active

Query :: Return IC50 for the following molecule: `CC(C)(C)c1ccc(S(=O)(=O)/C=C/C#N)cc1`
Result :: Not Active

---

experimental-system: Vascular endothelial growth factor receptor 1 (Homo sapiens); further: in other assays of this panel Not Active means under 50% inhibition at 10 µM
Sequence (P17948 whole entry): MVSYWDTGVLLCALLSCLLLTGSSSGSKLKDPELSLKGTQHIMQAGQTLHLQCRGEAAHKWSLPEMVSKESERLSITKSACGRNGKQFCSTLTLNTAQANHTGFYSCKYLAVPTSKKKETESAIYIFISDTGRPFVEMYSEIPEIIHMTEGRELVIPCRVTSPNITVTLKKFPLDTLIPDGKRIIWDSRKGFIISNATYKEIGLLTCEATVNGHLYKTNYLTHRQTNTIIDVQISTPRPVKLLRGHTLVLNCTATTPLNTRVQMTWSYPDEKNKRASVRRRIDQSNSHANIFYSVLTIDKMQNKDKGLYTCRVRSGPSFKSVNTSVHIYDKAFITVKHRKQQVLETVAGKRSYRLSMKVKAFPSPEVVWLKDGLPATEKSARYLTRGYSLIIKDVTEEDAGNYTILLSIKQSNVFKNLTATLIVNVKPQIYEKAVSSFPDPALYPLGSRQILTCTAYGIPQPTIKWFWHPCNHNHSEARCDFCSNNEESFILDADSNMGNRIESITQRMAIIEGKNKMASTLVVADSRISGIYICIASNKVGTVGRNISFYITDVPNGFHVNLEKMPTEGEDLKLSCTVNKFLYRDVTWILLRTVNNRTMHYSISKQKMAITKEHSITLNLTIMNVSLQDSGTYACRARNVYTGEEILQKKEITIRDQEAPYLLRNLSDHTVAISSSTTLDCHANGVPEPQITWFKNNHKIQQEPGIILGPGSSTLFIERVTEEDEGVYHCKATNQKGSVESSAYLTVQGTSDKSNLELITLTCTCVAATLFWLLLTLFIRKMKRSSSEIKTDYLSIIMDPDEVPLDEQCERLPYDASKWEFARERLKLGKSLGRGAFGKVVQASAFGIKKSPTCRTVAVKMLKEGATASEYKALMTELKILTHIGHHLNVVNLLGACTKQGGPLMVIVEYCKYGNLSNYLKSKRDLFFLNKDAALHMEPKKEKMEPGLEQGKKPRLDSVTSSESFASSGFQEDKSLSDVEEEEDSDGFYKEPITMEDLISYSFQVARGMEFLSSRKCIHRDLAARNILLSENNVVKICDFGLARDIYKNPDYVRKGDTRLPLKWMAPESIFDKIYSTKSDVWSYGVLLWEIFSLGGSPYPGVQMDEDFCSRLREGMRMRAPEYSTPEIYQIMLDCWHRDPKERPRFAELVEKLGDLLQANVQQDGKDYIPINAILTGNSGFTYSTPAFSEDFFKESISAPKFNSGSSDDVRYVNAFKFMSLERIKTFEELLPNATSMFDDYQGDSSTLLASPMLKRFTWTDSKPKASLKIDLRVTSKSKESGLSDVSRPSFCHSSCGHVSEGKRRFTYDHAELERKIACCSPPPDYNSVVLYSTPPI
test-description: biochemical
Format: cell-based, HUVEC
run-conditions: huvec
value-type: IC50

compound	experimental-system	result
CO[C@H]1C[C@@H]2CC[C@@H](C)[C@@](O)(O2)C(=O)C(=O)N2CCCC[C@H]2C(=O)O[C@H]([C@H](C)C[C@@H]2CC[C@@H](O)[C@H](OC)C2)CC(=O)[C@H](C)/C=C(\C)[C@@H](O)[C@@H](OC)C(=O)[C@H](C)C[C@H](C)/C=C/C=C/C=C/1C	Vascular endothelial growth factor receptor 1 (Homo sapiens)	Not Active
CCC(=O)O[C@H]1[C@H](O[C@@H]2[C@@H](C)[C@H](O[C@H]3C[C@@](C)(OC)[C@@H](O)[C@H](C)O3)[C@@H](C)C(=O)O[C@H](CC)[C@@](C)(O)[C@H](O)[C@@H](C)C(=O)[C@H](C)C[C@@]2(C)O)O[C@H](C)C[C@@H]1N(C)C [ERYTHROMYCIN PROPIONATE]	Vascular endothelial growth factor receptor 1 (Homo sapiens)	Not Active
